Data credit: ChEMBL document CHEMBL4257548

System: GM16216
Test: Effect on frataxin expression in human GM16216 cells at 250 nM after 48 hrs by ELISA relative to control
Format: functional
Give Activity for every item shown.
Provide the reading as a plain figure in %.

Identify measured Activity corresponding to `CCCCCCCCCCCCCCCN(CCCC)c1ccc2nc3ccc(=O)cc-3sc2c1`
127

Please report Activity for the following compound: `CN(C)c1ccc2nc3ccc(=O)cc-3sc2c1`
115

Give Activity for `CCCCCCCCCCCCCCCCc1cc2nc3ccc(N(C)C)cc3sc-2cc1=O`
131

// Input: `CCCCCCCCCCCCCCCN(C)c1ccc2nc3ccc(=O)cc-3sc2c1` . Output its Activity only.
127
